Biological target: DRB1*0701 (DR7) (Homo sapiens, UniProt P01903+P01911, A100R/A102G/A103Q/D57E/D86V/E43K/F76Y/K127E/L162R/M171V/P40G/Q125H/Q99D/R33Q/R42Y/R54Q/S133A/S66F/T210M/V115G/Y107V/Y59L/Y89S)
Assay: biochemical
Where no end group is shown, it is not given here.
As shown below, each of these sequences has a reported IC50 value.
Lab book: enter the figure in µM, no units written.

In the examples that follow, each entry is paired with its recorded IC50.
> print(dat)
                 ordered.residues  metric.name  result
1   WKHMRLECAIYYKAR [compound 91]         IC50   0.504
2  WKHIRLECVLMYKAR [compound 108]         IC50    16.4

Record NGWFYVEAVIDRQTG [compound 106] . Reported IC50: 1.46
